- Tested on: Hep G2 cells
- assayProcedure: In vitro toxicity (CellTiter-Glo cell viability), Hep G2;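 further: percent of untreated cells luminescence signal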
- Assay type: cell-based
- settings: mRNA (SEQ ID NO: 2) LNP, 1 μg/mL, 72 hours post transfection
# In vitro Viability HepG2 per entry
Give the value, in units of %, as a plain number.

1) CCCCC/C=C\C/C=C\CCCCCCCCN(CCCCCCCC(=O)OC(CCCCCCCC)CCCCCCCC)CCCOC(=O)NCCN(C)C	116

[ask] Query: In vitro Viability HepG2; subject: CCCCCCCCC(CCCCCCCC)OC(=O)CCCCCCCN(CCCCCCCCOC(=O)C(CCCCCC)CCCCCCCC)CCCOC(=O)NCCN(C)C (centres unmarked)
[reply] 78

[ask] Query: In vitro Viability HepG2; subject: CCCCC/C=C\CCOC(=O)CCCCCN(CCCCCC(=O)OCC(CCCCCCCC)CCCCCCCCCC)CCOC(=O)NCCN1CCCCC1 (centres unmarked)
[reply] 118

[ask] Query: In vitro Viability HepG2; subject: CCCCCCCCC(CCCCCCCC)OC(=O)CCCCCCCN(CCCCCCCCOC(=O)C(CCCCCC)CCCCCCCC)CCCOC(=O)NCCCN(C)C (centres unmarked)
[reply] 60

[ask] Query: In vitro Viability HepG2; subject: CCCCCCCCC(CCCCCC)C(=O)OCCCCCCCCN(CCCCCCCCOC(=O)C(CCCCCC)CCCCCCCC)CCOC(=O)NCCN(C)C (centres unmarked)
[reply] 113

[ask] Query: In vitro Viability HepG2; subject: CCCCCCCCCCC(CCCCCCCC)COC(=O)CCCCCN(CCCCCCCCOC(=O)C(CCCCCC)CCCCCCCC)CCOC(=O)NCCN(C)C (centres unmarked)
[reply] 83

[ask] Query: In vitro Viability HepG2; subject: CCCCCCCCC(CCCCCCCC)OC(=O)CCCCCCCN(CCCCCCCCOC(=O)C(CCCCCC)CCCCCCCC)CCCOC(=O)NCCN1CCCCC1 (centres unmarked)
[reply] 87

[ask] Query: In vitro Viability HepG2; subject: CCCCCCCCC(CCCCCC)C(=O)OCCCCCCCCN(CCCCCCCCOC(=O)C(CCCCCC)CCCCCCCC)CCCOC(=O)NCCN(C)C (centres unmarked)
[reply] 57

[ask] Query: In vitro Viability HepG2; subject: CCCCCCCCC(CCCCCCCC)OC(=O)CCCCCCCN(CCCCCCCCOC(=O)C(CCCCCC)CCCCCCCC)CCOC(=O)NCCN(C)C (centres unmarked)
[reply] 82

* * *

- System: BALB/C mice
- assayProcedure: In vivo expression, whole-body luminescence (IVIS)
- settings: cirRNA (SEQ ID NO: 1) LNPs, BALB/C mice
endpointLabel: In vivo Expression (Whole Body)
Form field (numeric): enter value without unit.

1. CCCCCCCCCC(=O)OCCCCCCCN(CCCCCCCCOC(=O)C(CCCCCC)CCCCCCCC)CCOC(=O)NCCCN(CC)CC (stereo not shown) [Lipid 199]	3.44E+05
2. CCCCCCCCCCC(CCCCCCCC)COC(=O)CCCCCN(CCCCCC(=O)OCC(CCCCCCCC)CCCCCCCCCC)CCOC(=O)NCCN1CCOCC1 (stereo not shown) [Lipid 174]	5.15E+07
3. CCCCCCCCC(CCCCCCCC)OC(=O)CCCCCCCN(CCCCCCCCOC(=O)C(CCCCCC)CCCCCCCC)CCCOC(=O)NCCCN(C)C (stereo not shown) [Lipid 348]	6.47E+07
4. CCCCCCCCCCCOC(=O)CCCCCN(CCCCCC(=O)OCCCCCCCCCCC)CCOC(=O)NCc1ncc[nH]1 [Lipid 155]	5.77E+07
5. CCCCC/C=C\C/C=C\CCCCCCCCN(CCCCCCCC(=O)OC(CCCCCCCC)CCCCCCCC)CCCOC(=O)NCCN1CCN(C)CC1 [Lipid 273]	5.16E+06

[ask] Query: In vivo Expression (Whole Body); subject: CCCCC/C=C\C/C=C\CCCCCCCCN(CCCCCCCC/C=C\C/C=C\CCCCC)CCOC(=O)NCCN1CCN(C)CC1 [Lipid 37]
[reply] 1.16E+05

[ask] Query: In vivo Expression (Whole Body); subject: CCCCCCCCCCC(CCCCCCCC)COC(=O)CCCCCN(CCCCCC(=O)OCC(CCCCCCCC)CCCCCCCCCC)CCCOC(=O)NCCN1CCCCC1 (stereo not shown) [Lipid 370]
[reply] 3.68E+08

[ask] Query: In vivo Expression (Whole Body); subject: CCCCCCCCCC(=O)OCCCCCCCN(CCCCCCCCOC(=O)C(CCCCCC)CCCCCCCC)CCOC(=O)NCCN1CCN(C)CC1 (stereo not shown) [Lipid 200]
[reply] 6.79E+05

[ask] Query: In vivo Expression (Whole Body); subject: CCCCCCCCCCC(CCCCCCCC)COC(=O)CCCCCN(CCCCCC(=O)OCC(CCCCCCCC)CCCCCCCCCC)CCCOC(=O)NCCN1CCN(C)CC1 (stereo not shown) [Lipid 367]
[reply] 1.74E+06

[ask] Query: In vivo Expression (Whole Body); subject: CCCCCCCCCCC(CCCCCCCC)COC(=O)CCCCCN(CCCCCCCCOC(=O)C(CCCCCC)CCCCCCCC)CCCOC(=O)NCCN(C)C (stereo not shown) [Lipid 364]
[reply] 4.73E+06

[ask] Query: In vivo Expression (Whole Body); subject: CCCCC/C=C\C/C=C\CCCCCCCCN(CCCCCC(=O)OCCCCCCCCCCC)CCOC(=O)NCc1ncc[nH]1 [Lipid 90]
[reply] 8.80E+07

[ask] Query: In vivo Expression (Whole Body); subject: CCCCCCCCCCC(CCCCCCCC)COC(=O)CCCCCN(CCCCCC(=O)OCC(CCCCCCCC)CCCCCCCCCC)CCOC(=O)NCCCN(CC)CC (stereo not shown) [Lipid 172]
[reply] 2.14E+07

[ask] Query: In vivo Expression (Whole Body); subject: CCCCC/C=C\C/C=C\CCCCCCCCN(CCCCCC(=O)OCC(CCCCCCCC)CCCCCCCCCC)CCOC(=O)NCCCN(C)C (stereo not shown) [Lipid 81]
[reply] 1.15E+04
